Assay: Selectivity index, ratio of IC50 for rhesus monkey LLC-MK2 cells to IC50 for Leishmania amazonensis promastigotes
Assay type: toxicity, cell-based
Conditions: read-out: Ratio IC50
Known selectivity ratio of a selection of compounds
Returns: the value as a bare number; no unit string appended.

Example entries and their recorded answers appear below.
- compound: "CC1=CC[C@H](C(C)CCNCCO)CC1 (mixture of isomers)"
  selectivity ratio: 3.4
- compound: "CC1=CC[C@H](C(C)CCNc2ccccc2)CC1 (mixture of isomers)"
  selectivity ratio: 3.5

Moving on to the next compound.
Let me know recorded selectivity ratio for CCCNCCC(C)[C@H]1CC=C(C)CC1 (mixture of isomers) , thanks.
3.6
